From: paper PMC4256047

- Target Under Test: T1, human wt-ERα LBD (estrogen receptor alpha ligand-binding domain, amino acids 302-552) (human, UniProt P03372 302-552)
- T1 sequence (looked up): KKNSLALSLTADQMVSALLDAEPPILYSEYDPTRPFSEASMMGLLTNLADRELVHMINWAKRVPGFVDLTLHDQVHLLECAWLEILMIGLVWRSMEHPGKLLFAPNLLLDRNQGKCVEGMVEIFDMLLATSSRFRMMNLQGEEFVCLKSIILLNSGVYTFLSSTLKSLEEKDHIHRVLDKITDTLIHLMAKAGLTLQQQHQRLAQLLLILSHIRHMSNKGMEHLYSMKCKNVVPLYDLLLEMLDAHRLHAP
- Test Description: fluorescence polarisation; fluorescence anisotropy; 4 nM fluorescein-SRC-1 NR2 peptide, LBD diluted 2-fold from 10 uM (ERα) or 20 uM (ERβ); with BPC at 20 uM (ERα) or 40 uM (ERβ); 20 mM Tris pH 8.0, 150 mM NaCl, 5 mM DTT, 10% glycerol
- Assay Context: both partners purified
Where no end group is shown, it is not given here. fluorescein = fluorescein label on the N-terminus of the peptide
Observable: Kd (µM)
Write it as a number; the unit µM goes unstated.

Query :: Look up Kd for this binder: fluorescein-RHKILHRLLQEGS (also called SRC-1 NR2 peptide; fluorescein-labeled SRC-1 NR2 peptide; source: bought: EZbiolab) [fluorescein-RHKILHRLLQEGS peptide corresponding to the NR box 2-binding motif of SRC-1]
Result :: 9.07
